Data origin: paper PMC3625477

type: in vivo, HIV-infected pregnant women; conditions: female, human, plasma, po, AUC0–12h, protein unbound; 32 wks (PK3); LPV/RTV 500mg/125mg twice daily; median
measure-name: AUC(0-t) (ng·h/mL)
Give bare numbers, in ng·h/mL.

compound | output-unit | reading
Cc1cccc(C)c1OCC(=O)N[C@@H](Cc1ccccc1)[C@@H](O)C[C@H](Cc1ccccc1)NC(=O)[C@H](C(C)C)N1CCCNC1=O [Lopinavir, lopinavir] | ng·h/mL | 1800

Can you share its AUC(0-t)? I mean this compound: CC(C)c1nc(CN(C)C(=O)N[C@H](C(=O)N[C@@H](Cc2ccccc2)C[C@H](O)[C@H](Cc2ccccc2)NC(=O)OCc2cncs2)C(C)C)cs1 [Ritonavir, ritonavir]
300

###

assay type: in vivo, HIV-infected pregnant women; details: female, human, plasma, po, Cmax, protein unbound; 32 wks (PK3); LPV/RTV 500mg/125mg twice daily; median
measure-name: Cmax (ng/mL)
Give bare numbers, in ng/mL.

line-notation | output-unit | Cmax
CC(C)c1nc(CN(C)C(=O)N[C@H](C(=O)N[C@@H](Cc2ccccc2)C[C@H](O)[C@H](Cc2ccccc2)NC(=O)OCc2cncs2)C(C)C)cs1 | ng/mL | 50

Shifting focus to the compound that follows.
# query: Cmax of entry Cc1cccc(C)c1OCC(=O)N[C@@H](Cc1ccccc1)[C@@H](O)C[C@H](Cc1ccccc1)NC(=O)[C@H](C(C)C)N1CCCNC1=O
240

###

assay: Total; type: in vivo, HIV-infected pregnant women; conditions: female, human, plasma, po, AUC0–12h, total (bound + unbound); 32 wks (PK3); LPV/RTV 500mg/125mg twice daily; median
measure-name: AUC(0-t) (ng·h/mL)
One number for each entry, in ng·h/mL.

Data request, read-out AUC(0-t), for CC(C)c1nc(CN(C)C(=O)N[C@H](C(=O)N[C@@H](Cc2ccccc2)C[C@H](O)[C@H](Cc2ccccc2)NC(=O)OCc2cncs2)C(C)C)cs1
2400

###

test: Total; format: in vivo, HIV-infected pregnant women; conditions: female, human, plasma, po, Cmax, total (bound + unbound); 30 wks (PK2); LPV/RTV 400mg/100mg twice daily; median
measure-name: Cmax
Respond with the figure and its unit, in that order.

Quick check: Cmax of CC(C)c1nc(CN(C)C(=O)N[C@H](C(=O)N[C@@H](Cc2ccccc2)C[C@H](O)[C@H](Cc2ccccc2)NC(=O)OCc2cncs2)C(C)C)cs1 ?
300 ng/mL

###

Kindly state Cmax for each of the entries shown.
type: in vivo, HIV-infected pregnant women; conditions: female, human, plasma, po, Cmax, protein unbound; 30 wks (PK2); LPV/RTV 400mg/100mg twice daily; median
Give bare numbers, in ng/mL.

line-notation | measure-name | reading
Cc1cccc(C)c1OCC(=O)N[C@@H](Cc1ccccc1)[C@@H](O)C[C@H](Cc1ccccc1)NC(=O)[C@H](C(C)C)N1CCCNC1=O | Cmax | 210

Now let's try a different one.
Recorded Cmax for CC(C)c1nc(CN(C)C(=O)N[C@H](C(=O)N[C@@H](Cc2ccccc2)C[C@H](O)[C@H](Cc2ccccc2)NC(=O)OCc2cncs2)C(C)C)cs1 , please?
50

###

test: Total; assay type: in vivo, HIV-infected pregnant women; details: female, human, plasma, oral, C12h, total (bound + unbound); 20–24 wks (PK1); LPV/RTV 400mg/100mg twice daily; median
measure-name: concentration at 12 h (ng/mL)
Numbers only, in ng/mL.

Look up concentration at 12 h for this molecule: CC(C)c1nc(CN(C)C(=O)N[C@H](C(=O)N[C@@H](Cc2ccccc2)C[C@H](O)[C@H](Cc2ccccc2)NC(=O)OCc2cncs2)C(C)C)cs1 [Ritonavir, ritonavir]
120
